protocolSummary: total protein half-life in vivo (active degradation + dilution); higher = more stable protein
runParameters: E. coli NCM3722 delta-clpP; growth: N-lim chemostat; doubling time 6 h
measuredAttribute: total protein half-life in vivo (h)
Give a bare numeral; the unit h is implied.

Entry under review: MTDNPNKKTFWDKVHLDPTMLLILLALLVYSALVIWSASGQDIGMMERKIGQIAMGLVIMVVMAQIPPRVYEGWAPYLYIICIILLVAVDAFGAISKGAQRWLDLGIVRFQPSEIAKIAVPLMVARFINRDVCPPSLKNTGIALVLIFMPTLLVAAQPDLGTSILVALSGLFVLFLSGLSWRLIGVAVVLVAAFIPILWFFLMHDYQRQRVMMLLDPESDPLGAGYHIIQSKIAIGSGGLRGKGWLHGTQSQLEFLPERHTDFIFAVLAEELGLVGILILLALYILLIMRGLWIAARAQTTFGRVMAGGLMLILFVYVFVNIGMVSGILPVVGVPLPLVSYGGSALIVLMAGFGIVMSIHTHRKMLSKSV [P0ABG7] . Reported total protein half-life in vivo? 6.24

Would you kindly share the measured total protein half-life in vivo for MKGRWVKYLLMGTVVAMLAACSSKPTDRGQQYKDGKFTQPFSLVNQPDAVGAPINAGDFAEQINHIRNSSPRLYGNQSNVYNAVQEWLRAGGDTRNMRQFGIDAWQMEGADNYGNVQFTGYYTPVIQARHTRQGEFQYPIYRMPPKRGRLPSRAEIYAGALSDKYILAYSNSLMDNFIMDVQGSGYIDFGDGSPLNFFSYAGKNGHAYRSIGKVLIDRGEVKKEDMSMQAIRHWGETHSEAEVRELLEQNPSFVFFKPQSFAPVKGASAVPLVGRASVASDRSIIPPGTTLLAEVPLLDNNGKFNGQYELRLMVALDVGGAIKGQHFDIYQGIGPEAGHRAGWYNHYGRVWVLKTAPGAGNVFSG [P0A935] ? 4.22

Look at this sequence and give its reported total protein half-life in vivo. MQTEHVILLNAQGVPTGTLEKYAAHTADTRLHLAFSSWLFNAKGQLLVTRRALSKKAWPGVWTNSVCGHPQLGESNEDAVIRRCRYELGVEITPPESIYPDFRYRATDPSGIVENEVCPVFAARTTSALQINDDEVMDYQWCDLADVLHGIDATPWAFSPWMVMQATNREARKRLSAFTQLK 4.86

Data request, read-out total protein half-life in vivo, for MPSLSKEAALVHEALVARGLETPLRPPVHEMDNETRKSLIAGHMTEIMQLLNLDLADDSLMETPHRIAKMYVDEIFSGLDYANFPKITLIENKMKVDEMVTVRDITLTSTCEHHFVTIDGKATVAYIPKDSVIGLSKINRIVQFFAQRPQVQERLTQQILIALQTLLGTNNVAVSIDAVHYCVKARGIRDATSATTTTSLGGLFKSSQNTRHEFLRAVRHHN [P0A6T5] 1.56

// total protein half-life in vivo lookup, key: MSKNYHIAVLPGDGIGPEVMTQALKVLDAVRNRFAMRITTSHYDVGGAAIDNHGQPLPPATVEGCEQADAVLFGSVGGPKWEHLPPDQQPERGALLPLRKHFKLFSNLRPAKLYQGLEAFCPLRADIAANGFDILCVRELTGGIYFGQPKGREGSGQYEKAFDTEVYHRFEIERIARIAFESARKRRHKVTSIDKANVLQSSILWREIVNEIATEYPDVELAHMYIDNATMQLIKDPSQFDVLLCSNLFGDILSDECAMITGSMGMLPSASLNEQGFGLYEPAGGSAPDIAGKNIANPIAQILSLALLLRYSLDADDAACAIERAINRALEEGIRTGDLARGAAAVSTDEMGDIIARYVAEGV 2.56

What value of total protein half-life in vivo has been reported for the following sequence? MLYVIYAQDKADSLEKRLSVRPAHLARLQLLHDEGRLLTAGPMPAVDSNDPGAAGFTGSTVIAEFESLEAAQAWADADPYVAAGVYEHVSVKPFKKVF [P0AB55] 4.75

Reported total protein half-life in vivo for MKLFAQGTSLDLSHPHVMGILNVTPDSFSDGGTHNSLIDAVKHANLMINAGATIIDVGGESTRPGAAEVSVEEELQRVIPVVEAIAQRFEVWISVDTSKPEVIRESAKVGAHIINDIRSLSEPGALEAAAETGLPVCLMHMQGNPKTMQEAPKYDDVFAEVNRYFIEQIARCEQAGIAKEKLLLDPGFGFGKNLSHNYSLLARLAEFHHFNLPLLVGMSRKSMIGQLLNVGPSERLSGSLACAVIAAMQGAHIIRVHDVKETVEAMRVVEATLSAKENKRYE [P0AC13] : what is it? 3.78

Can you share its total protein half-life in vivo? I mean this sequence: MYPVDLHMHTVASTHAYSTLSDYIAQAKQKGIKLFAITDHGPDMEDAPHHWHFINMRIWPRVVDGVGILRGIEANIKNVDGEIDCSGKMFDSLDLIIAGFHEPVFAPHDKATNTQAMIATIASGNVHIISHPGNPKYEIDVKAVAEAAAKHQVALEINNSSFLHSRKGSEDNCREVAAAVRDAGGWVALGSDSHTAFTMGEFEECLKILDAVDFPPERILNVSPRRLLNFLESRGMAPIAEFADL 4.01

Param item = MQYNPLGKTDLRVSRLCLGCMTFGEPDRGNHAWTLPEESSRPIIKRALEGGINFFDTANSYSDGSSEEIVGRALRDFARREDVVVATKVFHRVGDLPEGLSRAQILRSIDDSLRRLGMDYVDILQIHRWDYNTPIEETLEALNDVVKAGKARYIGASSMHASQFAQALELQKQHGWAQFVSMQDHYNLIYREEEREMLPLCYQEGVAVIPWSPLARGRLTRPWGETTARLVSDEVGKNLYKESDENDAQIAERLTGVSEELGATRAQVALAWLLSKPGIAAPIIGTSREEQLDELLNAVDITLKPEQIAELETPYKPHPVVGFK ; retrieve measured total protein half-life in vivo. 4.47

Using the record for MTKPYVRLDKNDAAVLLVDHQAGLLSLVRDIEPDKFKNNVLALGDLAKYFNLPTILTTSFETGPNGPLVPELKAQFPDTPYIARPGNINAWDNEDFVKAVKATGKKQLIIAGVVTEVCVAFPALSAIEEGFDVFVVTDASGTFNEITRHSAWDRLSQAGAQLMTWFGVACELHRDWRNDIEGLATLFSNHIPDYRNLMTSYDTLTKQK , report its total protein half-life in vivo. 5.73

Consider the sequence MSNKMTGLVKWFNADKGFGFISPVDGSKDVFVHFSAIQNDNYRTLFEGQKVTFSIESGAKGPAAANVIITD and give its measured total protein half-life in vivo. 0.486

Item under review: MTDMNILDLFLKASLLVKLIMLILIGFSIASWAIIIQRTRILNAAAREAEAFEDKFWSGIELSRLYQESQGKRDNLTGSEQIFYSGFKEFVRLHRANSHAPEAVVEGASRAMRISMNRELENLETHIPFLGTVGSISPYIGLFGTVWGIMHAFIALGAVKQATLQMVAPGIAEALIATAIGLFAAIPAVMAYNRLNQRVNKLELNYDNFMEEFTAILHRQAFTVSESNKG [P0ABU9] . Reported total protein half-life in vivo? 6.17
